meta.source: ChEMBL document CHEMBL3046402

System: Mus musculus
Test: Anticonvulsant activity against maximal electric shock-induced seizures in Swiss albino Mus musculus (mouse) assessed as time duration of tonic flexions at 35 mg/kg administered 30 min prior to maximal electric shock-challenge (reference value: 0 secs)
Format: functional
Note to self: class labels come from recorded Time, ranges listed here: low bracket = under 6 s, middle bracket = from 6 s up to 8 s, high bracket = 8 s and over

[
  {
    "smiles_entry": "Cc1ccc2nc(NC(=O)Oc3ccccc3)sc2c1",
    "class_name": "middle bracket"
  },
  {
    "smiles_entry": "CCOC(=O)Nc1nc2c(C)cccc2s1",
    "class_name": "middle bracket"
  },
  {
    "smiles_entry": "CCOC(=O)Nc1nc2ccc(OC)cc2s1",
    "class_name": "middle bracket"
  },
  {
    "smiles_entry": "CCOC(=O)Nc1nc2ccccc2s1",
    "class_name": "middle bracket"
  },
  {
    "smiles_entry": "O=C(Nc1nc2ccc([N+](=O)[O-])cc2s1)Oc1ccccc1",
    "class_name": "middle bracket"
  },
  {
    "smiles_entry": "Cc1cccc2sc(NC(=O)Oc3ccccc3)nc12",
    "class_name": "low bracket"
  },
  {
    "smiles_entry": "O=C(Nc1nc2ccccc2s1)Oc1ccccc1",
    "class_name": "high bracket"
  },
  {
    "smiles_entry": "CCOC(=O)Nc1nc2ccc([N+](=O)[O-])cc2s1",
    "class_name": "middle bracket"
  },
  {
    "smiles_entry": "COc1ccc2nc(NC(=O)Oc3ccccc3)sc2c1",
    "class_name": "high bracket"
  },
  {
    "smiles_entry": "CCc1ccc2nc(NC(=O)Oc3ccccc3)sc2c1",
    "class_name": "low bracket"
  },
  {
    "smiles_entry": "O=C(Nc1nc2ccc(Cl)cc2s1)Oc1ccccc1",
    "class_name": "high bracket"
  },
  {
    "smiles_entry": "CCOC(=O)Nc1nc2ccc(Cl)cc2s1",
    "class_name": "high bracket"
  },
  {
    "smiles_entry": "CCOC(=O)Nc1nc2ccc(C)cc2s1",
    "class_name": "middle bracket"
  }
]
